tested on: NCI-H23 lung; assay: NCI tumour cell line growth inhibition, 48 h
Property label: TGI

INSERT INTO results (molecule, tgt, property_label, recorded_result) VALUES
  ('CCC[CH2][Sn]1([CH2]CCC)[O]Cc2nc(C)ccc2[O]1', 'NCI-H23 lung', 'TGI', '4.79 µM'),
  ('CC(C)(CC(=O)Nc1ccccc1)C(=O)O', 'NCI-H23 lung', 'TGI', '> 100 µM'),
  ('COc1ccc(C2=CC3CCC2C3)cc1 (stereo unspecified)', 'NCI-H23 lung', 'TGI', '> 100 µM'),
  ('FC(F)(F)c1ccc2nc3n(c2c1)C(c1c(Cl)cccc1Cl)SC3 (stereo unspecified)', 'NCI-H23 lung', 'TGI', '37 µM'),
  ('CN1CCN(C)C12C=c1ccccc1=CC21CC1', 'NCI-H23 lung', 'TGI', '> 100 µM'),
  ('CCOC(=O)C(CC#Cc1ccc(C#CCC(NC(C)=O)C(=O)OCC)cc1)NC(C)=O (stereo unspecified)', 'NCI-H23 lung', 'TGI', '> 100 µM');

====

Each entry below carries its reported TGI.
tested on: MCF7 breast; assay: NCI tumour cell line growth inhibition, 48 h
Where a SMILES comes first, the peptide text is derived from it. The star is where a group is joined. Cbz = O=C(OCc1ccccc1)*; NHNH2 = NN*
Property label: TGI

INSERT INTO results (molecule, tgt, property_label, recorded_result) VALUES
  ('Cn1c2ccccc2n2c(=O)c3cc([N+](=O)[O-])ccc3c(C#N)c12', 'MCF7 breast', 'TGI', '> 100 µM'),
  ('CCOn1c(C2(CC3CCN(C(=O)c4ccccc4)CC3)OCCO2)cc2ccccc21', 'MCF7 breast', 'TGI', '30 µM'),
  ('CCOC(=O)C(CC#Cc1ccc(C#CCC(NC(C)=O)C(=O)OCC)cc1)NC(C)=O (stereo not drawn)', 'MCF7 breast', 'TGI', '> 100 µM'),
  ('N#Cc1ccc(NC(=O)Nc2ccc(Oc3ccc(NC(=O)Nc4ccc(C#N)cc4)cc3)cc2)cc1', 'MCF7 breast', 'TGI', '> 100 µM'),
  ('COC(=O)CC(NC(=O)OCc1ccccc1)C(=O)NC(CC(=O)OC)C(=O)NC(CC(=O)OC)C(=O)NC(CC(=O)OC)C(=O)NC(CC(=O)OC)C(=O)NC(CC(=O)OC)C(=O)NN (stereo not drawn) (Cbz-D(OMe)D(OMe)D(OMe)D(OMe)D(OMe)D(OMe)-NHNH2; configuration not given here)', 'MCF7 breast', 'TGI', '> 100 µM'),
  ('Brc1ccc2c(-c3csc(-c4c[nH]c5cc(Br)ccc45)n3)c[nH]c2c1', 'MCF7 breast', 'TGI', '> 100 µM'),
  ('CC1CC(=O)Nc2nc3ccccc3n21 (stereo not drawn)', 'MCF7 breast', 'TGI', '> 100 µM'),
  ('CN1C(=O)C2(Cc3cn(C45CC67SSC(CO)(C(=O)N6C4Nc4ccccc45)N(C)C7=O)c4ccccc34)SSC1(CO)C(=O)N2C (stereo not drawn)', 'MCF7 breast', 'TGI', '0.259 µM');

====

Parameter TGI: see the listing below.
tested on: NCI-H522 lung; assay: NCI tumour cell line growth inhibition, 48 h
Property label: TGI

INSERT INTO assay_data (compound, recorded_result) VALUES
  ('Brc1cccc(C=NC23CC4CC(CC(C4)C2)C3)c1', '> 100 µM'),
  ('O=C1CSC(c2cccs2)N1c1nc2cc3sc(N4C(=O)CSC4c4cccs4)nc3cc2s1 (centres undefined)', '> 50 µM'),
  ('COCC1OC(N2C(=O)NC(=O)[C@@H]3C=C4CCCCC4=C[C@@H]32)C(OC)C1OC (some centres undefined)', '> 100 µM'),
  ('Cc1nn(-c2cc(Cl)ccc2[N+](=O)[O-])c(C)c1Cl', '> 100 µM');

====

system: SNB-19 CNS; assay: NCI tumour cell line growth inhibition, 48 h
Where a SMILES comes first, the peptide text is derived from it. The star is where a group is joined. Cbz = O=C(OCc1ccccc1)*; NHNH2 = NN*
Property label: TGI

INSERT INTO measurements (compound, recorded_result) VALUES
  ('COc1ccc(-c2cnnc3c(-c4cccc(C(F)(F)F)c4)cnn23)cc1', '7.44 µM'),
  ('NC(=O)C(=O)N/N=C(\CC1(O)C(=O)Nc2ccccc21)c1ccc2ccccc2c1 (configuration not stated)', '> 100 µM'),
  ('O=C(c1ccccc1)c1nnc(C(=O)c2ccccc2)nn1', '> 344 µM'),
  ('N#CSc1c[nH]c2cccc(/C=C/C(=O)/C=C(/C=C/c3cccc4[nH]cc(SC#N)c34)OB(F)F)c12', '14.7 µM'),
  ('CC(C)C(=O)NC(=S)Nc1ccc([N+](=O)[O-])cc1C#N', '> 100 µM'),
  ('FC(F)(F)c1ccc2nc3n(c2c1)C(c1c(Cl)cccc1Cl)SC3 (configuration not stated)', '34 µM'),
  ('COc1c(C)c2nc3ccccc3[nH]c2c2c(=O)ccnc12', '> 100 µM'),
  ('O=C(Nc1ccccc1C(=O)NCCCO)/C(=C/c1ccccc1O)NC(=O)c1ccccc1', '40.8 µM'),
  ('Cc1cn([C@@H]2C[C@H]2CO)c(=O)[nH]c1=O', '> 100 µM'),
  ('N#Cc1cc2c(cc1Cl)Sc1nccn1S2(=O)=O', '24.6 µM'),
  ('Cc1cn(C(C)OCCN2C(=O)c3ccccc3C2=O)c(=O)[nH]c1=O (configuration not stated)', '> 100 µM'),
  ('COC(=O)C1Cc2c(n(Cc3ccccc3)c3ccccc23)C(CCC(=O)O)N1C(C)C (configuration not stated)', '> 100 µM'),
  ('Cn1c2ccccc2n2c(=O)c3cc([N+](=O)[O-])ccc3c(C#N)c12', '> 100 µM'),
  ('CC(C)(CC(=O)Nc1ccccc1)C(=O)O', '> 100 µM'),
  ('COc1cc(CN2CCCCC2)cc2cc(C(=O)O)c(=O)oc12', '> 100 µM'),
  ('O=c1[nH]nc(-c2ccccc2)c2[nH]c(-c3ccccc3)cc12', '> 100 µM'),
  ('COC(=O)[C@]12CC[C@@H](C)[C@H](C)[C@@H]1C1=CC[C@@H]3[C@@]4(C)C/C(=N\O)[C@H](O)[C@@]5(C)COC(=C45)C[C@@]3(C)[C@]1(C)CC2', '31.5 µM'),
  ('OCC(O)CC[CH2][Sn]([Br])([c]1ccccc1)[c]1ccccc1 (configuration not stated)', '> 100 µM'),
  ('NC1CNC(=O)c2c(Cl)sc(Cl)c21 (configuration not stated)', '> 100 µM'),
  ('CCOC(=O)C(CC#Cc1ccc(C#CCC(NC(C)=O)C(=O)OCC)cc1)NC(C)=O (configuration not stated)', '> 100 µM'),
  ('O=C(/N=N/C(=O)OCc1ccccc1)OCc1ccccc1', '> 100 µM'),
  ('CS(=O)(=O)c1ccc([C@H]2O[C@@H](CO)C[C@]2(O)c2ccc(S(C)(=O)=O)cc2)cc1', '> 100 µM'),
  ('C=C1C(=O)O[C@H]2[C@H]1CC/C(Cn1cc(-c3ccc(OC)cc3)nn1)=C\CC[C@@]1(C)O[C@@H]21', '21.4 µM'),
  ('COC(=O)c1ccc(C=Nc2ccc(S(N)(=O)=O)cc2)cc1', '> 100 µM'),
  ('CC(=O)CNC(=O)OC(C)(C)C', '> 100 µM'),
  ('c1ccc(/C(=N/Nc2ccccn2)c2ncccn2)cc1', '> 100 µM'),
  ('COC(=O)CC(NC(=O)OCc1ccccc1)C(=O)NC(CC(=O)OC)C(=O)NC(CC(=O)OC)C(=O)NC(CC(=O)OC)C(=O)NC(CC(=O)OC)C(=O)NC(CC(=O)OC)C(=O)NN (configuration not stated) (Cbz-D(OMe)D(OMe)D(OMe)D(OMe)D(OMe)D(OMe)-NHNH2; configuration not given here)', '> 100 µM');

====

tested on: BT-549 breast; assay: NCI tumour cell line growth inhibition, 48 h
Where a SMILES comes first, the peptide text is derived from it. The star is where a group is joined. Cbz = O=C(OCc1ccccc1)*; NHNH2 = NN*
# TGI per entry
Property label: TGI

INSERT INTO measurements (compound, property_label, recorded_result) VALUES
  ('CC1S/C(=N/c2nnc(-c3ccccc3)o2)NC1=O (stereo not given)', 'TGI', '> 100 µM'),
  ('CCCCc1ccc(Nc2nc3c(ncn3COCCO)c(=O)[nH]2)cc1', 'TGI', '> 100 µM'),
  ('COc1ccc2cc(NC(=O)N/N=C\c3ccc(Cl)cc3)ccc2c1', 'TGI', '> 100 µM'),
  ('CCC(C)c1c(Cl)nc(Cl)nc1Cl (stereo not given)', 'TGI', '4.65 µM'),
  ('Cc1cc2ncc3c(=O)n(NS(=O)(=O)c4ccc(N)cc4)ccc3n2n1', 'TGI', '> 100 µM'),
  ('Brc1ccc2c(-c3csc(-c4c[nH]c5cc(Br)ccc45)n3)c[nH]c2c1', 'TGI', '> 100 µM'),
  ('COc1ccc(-c2cc(=O)c3ccc(O)cc3o2)cc1OC', 'TGI', '> 100 µM'),
  ('COc1ccc2c(c1)CN1C(=N2)CSC1c1ccccc1Cl (stereo not given)', 'TGI', '80.3 µM'),
  ('COC(=O)CC(NC(=O)OCc1ccccc1)C(=O)NC(CC(=O)OC)C(=O)NC(CC(=O)OC)C(=O)NC(CC(=O)OC)C(=O)NC(CC(=O)OC)C(=O)NC(CC(=O)OC)C(=O)NN (stereo not given) (Cbz-D(OMe)D(OMe)D(OMe)D(OMe)D(OMe)D(OMe)-NHNH2; configuration not given here)', 'TGI', '> 100 µM'),
  ('COc1cc(CN2CCCCC2)cc2cc(C(=O)O)c(=O)oc12', 'TGI', '> 100 µM');
